Species: Rattus norvegicus
PROTOCOL_DESCRIPTION: Open TG-GATES - Regimen: Single
Assay type: toxicity, organism-based, Sprague-Dawley
Design: regimen Single, gender Male, age 6 weeks
CONDITION_INFO: in vivo, po, 1000 mg/kg, 24 h, tissue Blood, route gavage, dose level High
# Neu per record follows
Field format: number, assumed %, no unit text.

Could you share which Neu value was measured for Clc1ccccc1CN1CCc2sccc2C1 ?
15

Returns the measured Neu for the input molecule. Input: O=C(O)c1cc(/N=N/c2ccc(S(=O)(=O)Nc3ccccn3)cc2)ccc1O
13

---

# reported TC; entries follow
Organism: Rattus norvegicus
PROTOCOL_DESCRIPTION: Open TG-GATES - Regimen: Single
Type: toxicity, organism-based, Sprague-Dawley
Set-up: regimen Single, gender Male, age 6 weeks
CONDITION_INFO: in vivo, po, 0 mg/kg, 6 h, tissue Plasma, route gavage, dose level Control
Number only, in mg/dL; omit the unit.

Sample answers from the record:
O=C(O)c1cn(C2CC2)c2cc(N3CCNCC3)c(F)cc2c1=O = 80.6
CN(C)CCC=C1c2ccccc2CCc2ccccc21 = 78.4

Form field: reported TC of CSc1ccc2c(c1)N(CCC1CCCCN1C)c1ccccc1S2 (stereo unspecified)
80.2

If you can, please state the reported TC value of CC(=O)Oc1ccccc1C(=O)O .
80.4

# get_value(readout='TC', item= NC(=O)N/N=C/c1ccc([N+](=O)[O-])o1 )
78.2

Consider the molecule shown here: CCc1cc(C(N)=S)ccn1 [ETHIONAMIDE] What is its recorded TC?
82.4

---

Organism: Rattus norvegicus
PROTOCOL_DESCRIPTION: Open TG-GATES - Regimen: Single
Type: toxicity, organism-based, Sprague-Dawley
Parameters: regimen Single, gender Male, age 6 weeks
CONDITION_INFO: in vivo, po, 300 mg/kg, 24 h, tissue Blood, route gavage, dose level Middle
ENDPOINT_NAME: MCV (fL)
Give the number; fL is assumed, so skip it.

O=C(O)c1cn(C2CC2)c2cc(N3CCNCC3)c(F)cc2c1=O [CIPROFLOXACIN] = 64.8
C[C@H](CS)C(=O)N1CCC[C@H]1C(=O)O [CAPTOPRIL] = 64.8

# query: MCV of entry Clc1ccccc1CN1CCc2sccc2C1 [TICLOPIDINE]
62.2

State the recorded MCV for this entry: O=C(O)c1cc(/N=N/c2ccc(S(=O)(=O)Nc3ccccn3)cc2)ccc1O [SULFASALAZINE]
62.1

Name the reported MCV value associated with the molecule CCc1cc(C(N)=S)ccn1 [ETHIONAMIDE]
64.3

---

# BUN per record follows
Organism: Rattus norvegicus
PROTOCOL_DESCRIPTION: Open TG-GATES - Regimen: Single
Format: toxicity, organism-based, Sprague-Dawley
Set-up: regimen Single, gender Male, age 6 weeks
CONDITION_INFO: in vivo, po, 300 mg/kg, 3 h, tissue Plasma, route gavage, dose level Middle
I'd appreciate it if you wrote the number followed by its unit.

Known BUN results, listed for orientation:
O=C(O)c1cn(C2CC2)c2cc(N3CCNCC3)c(F)cc2c1=O = 11.6 mg/dL
C[C@H](CS)C(=O)N1CCC[C@H]1C(=O)O = 17 mg/dL

Field request: BUN | item: CCc1cc(C(N)=S)ccn1 [ETHIONAMIDE]
15.6 mg/dL

Name the reported BUN value associated with the compound O=C(O)c1cc(/N=N/c2ccc(S(=O)(=O)Nc3ccccn3)cc2)ccc1O
10.8 mg/dL
